Hey, just so you know, these numbers are from patent US11844801B2.

- Assay Name: Phase 1 SAD/MAD pharmacokinetics of oral ATI-450 in healthy subjects (incl. 80/120 mg BID extension)
- Format: in vivo, human
- Assay Context: both sexes, human, plasma, oral, 120 mg, 120 mg BID, day 7; read-out: Cavg
Measure Name: concentration at 7 day (ng/mL)
Only the number, expressed in ng/mL, is required.

Quick one: concentration at 7 day of Cc1cnc(-c2ccnc(C(C)(C)O)n2)cc1-n1c(C)cc(OCc2ncc(F)cc2F)c(Cl)c1=O (single isomer, unassigned) ?
215

----------
- Assay Name: Phase 1 SAD/MAD pharmacokinetics of oral ATI-450 in healthy subjects (incl. 80/120 mg BID extension)
- Assay type: in vivo, human
- Assay Context: both sexes, human, plasma, oral, 30 mg, 30 mg BID, day 7; read-out: AUC0-12
Measure Name: AUC(0-t) (µg·h/mL)
Only the number, expressed in µg·h/mL, is required.

Quick one: AUC(0-t) of Cc1cnc(-c2ccnc(C(C)(C)O)n2)cc1-n1c(C)cc(OCc2ncc(F)cc2F)c(Cl)c1=O (single isomer, unassigned) [ATI-450] ?
0.909

----------
- Assay Name: Phase 1 SAD/MAD pharmacokinetics of oral ATI-450 in healthy subjects (incl. 80/120 mg BID extension)
- Assay type: in vivo, human
- Assay Context: both sexes, human, plasma, oral, SAD cohorts, fasted; read-out: median Tmax, range across dose cohorts
Measure Name: Tmax

Quick one: Tmax of Cc1cnc(-c2ccnc(C(C)(C)O)n2)cc1-n1c(C)cc(OCc2ncc(F)cc2F)c(Cl)c1=O (single isomer, unassigned) [ATI-450] ?
2 to 4 h

----------
- Assay Name: 13-week oral administration non-clinical safety study, rat
- Assay type: in vivo
- Assay Context: rat, in vivo; 13-week oral; read-out: no-observed adverse effect level (NOAEL)
Measure Name: NOAEL at 13 weeks (mg/kg/day)
Only the number, expressed in mg/kg/day, is required.

Quick one: NOAEL at 13 weeks of Cc1cnc(-c2ccnc(C(C)(C)O)n2)cc1-n1c(C)cc(OCc2ncc(F)cc2F)c(Cl)c1=O (single isomer, unassigned) ?
30

----------
- Assay Name: Phase 1 SAD/MAD pharmacokinetics of oral ATI-450 in healthy subjects (incl. 80/120 mg BID extension)
- Type: in vivo, human
- Assay Context: both sexes, human, plasma, oral, 50 mg, 50 mg BID, day 5; read-out: Ctrough
Measure Name: concentration at 5 day (ng/mL)
Only the number, expressed in ng/mL, is required.

Quick one: concentration at 5 day of Cc1cnc(-c2ccnc(C(C)(C)O)n2)cc1-n1c(C)cc(OCc2ncc(F)cc2F)c(Cl)c1=O (single isomer, unassigned) [ATI-450] ?
81.5

----------
- Assay Name: Phase 1 SAD/MAD pharmacokinetics of oral ATI-450 in healthy subjects (incl. 80/120 mg BID extension)
- Type: in vivo, human
- Assay Context: both sexes, human, plasma, po, 100 mg, single oral dose 100 mg, fasted
- Method: Study Design. […] Single ascending dose (SAD) cohorts. […] Multiple ascending dose (MAD) cohorts. […] Blood Sampling and Bioanalysis. Two-milliliter blood samples were collected for PK analysis. […] The lower limit of quantification was 0.500 ng/mL. Pharmacokinetics. […] The method was minimally required to have intra- and inter-day precision (coefficients of variation) for pooled plasma quality control samples of ≤15% except at the lower limit of quantitation, where ≤20% was acceptable. […]
Measure Name: AUC(0-inf) (ng·h/mL)
Only the number, expressed in ng·h/mL, is required.

Quick one: AUC(0-inf) of Cc1cnc(-c2ccnc(C(C)(C)O)n2)cc1-n1c(C)cc(OCc2ncc(F)cc2F)c(Cl)c1=O (single isomer, unassigned) ?
3650

----------
- Assay Name: Phase 1 SAD/MAD pharmacokinetics of oral ATI-450 in healthy subjects (incl. 80/120 mg BID extension)
- Type: in vivo, human
- Assay Context: both sexes, human, plasma, po, 100 mg, single oral dose 100 mg, fed (high-fat, high-calorie breakfast)
Measure Name: AUC(0-inf) (ng·h/mL)
Only the number, expressed in ng·h/mL, is required.

Quick one: AUC(0-inf) of Cc1cnc(-c2ccnc(C(C)(C)O)n2)cc1-n1c(C)cc(OCc2ncc(F)cc2F)c(Cl)c1=O (single isomer, unassigned) ?
4100

----------
- Assay Name: Phase 1 SAD/MAD pharmacokinetics of oral ATI-450 in healthy subjects (incl. 80/120 mg BID extension)
- Type: in vivo, human
- Assay Context: both sexes, human, plasma, oral, 30 mg, 30 mg BID, day 2; read-out: Ctrough
Measure Name: concentration at 2 day (ng/mL)
Only the number, expressed in ng/mL, is required.

Quick one: concentration at 2 day of Cc1cnc(-c2ccnc(C(C)(C)O)n2)cc1-n1c(C)cc(OCc2ncc(F)cc2F)c(Cl)c1=O (single isomer, unassigned) [ATI-450] ?
37.5

----------
- Assay Name: Phase 1 SAD/MAD pharmacokinetics of oral ATI-450 in healthy subjects (incl. 80/120 mg BID extension)
- Type: in vivo, human
- Assay Context: both sexes, human, plasma, po, 50 mg, single oral dose 50 mg, fasted
Measure Name: AUC(0-inf) (ng·h/mL)
Only the number, expressed in ng·h/mL, is required.

Quick one: AUC(0-inf) of Cc1cnc(-c2ccnc(C(C)(C)O)n2)cc1-n1c(C)cc(OCc2ncc(F)cc2F)c(Cl)c1=O (single isomer, unassigned) ?
1460

----------
- Assay Name: Phase 1 SAD/MAD pharmacokinetics of oral ATI-450 in healthy subjects (incl. 80/120 mg BID extension)
- Assay type: in vivo, human
- Assay Context: both sexes, human, plasma, oral, 10 mg BID, day 7; read-out: Ctrough
Measure Name: concentration at 7 day (ng/mL)
Only the number, expressed in ng/mL, is required.

Quick one: concentration at 7 day of Cc1cnc(-c2ccnc(C(C)(C)O)n2)cc1-n1c(C)cc(OCc2ncc(F)cc2F)c(Cl)c1=O (single isomer, unassigned) [ATI-450] ?
11.8

----------
- Assay Name: Phase 1 SAD/MAD pharmacokinetics of oral ATI-450 in healthy subjects (incl. 80/120 mg BID extension)
- Assay type: in vivo, human
- Assay Context: both sexes, human, plasma, oral, 10 mg, 10 mg BID, day 4; read-out: Ctrough
Measure Name: concentration at 4 day (ng/mL)
Only the number, expressed in ng/mL, is required.

Quick one: concentration at 4 day of Cc1cnc(-c2ccnc(C(C)(C)O)n2)cc1-n1c(C)cc(OCc2ncc(F)cc2F)c(Cl)c1=O (single isomer, unassigned) ?
9.2

----------
- Assay Name: Phase 1 SAD/MAD pharmacokinetics of oral ATI-450 in healthy subjects (incl. 80/120 mg BID extension)
- Format: in vivo, human
- Assay Context: both sexes, human, plasma, oral, 10 mg, 10 mg BID, day 7; read-out: Cmax
Measure Name: Cmax
# output: number + unit

Quick one: Cmax of Cc1cnc(-c2ccnc(C(C)(C)O)n2)cc1-n1c(C)cc(OCc2ncc(F)cc2F)c(Cl)c1=O (single isomer, unassigned) ?
51.8 ng/mL

----------
- Assay Name: Phase 1 SAD/MAD pharmacokinetics of oral ATI-450 in healthy subjects (incl. 80/120 mg BID extension)
- Format: in vivo, human
- Assay Context: both sexes, human, plasma, po, 30 mg, single oral dose 30 mg, fasted; read-out: t1/2 (converted)
Measure Name: half-life (h)
Only the number, expressed in h, is required.

Quick one: half-life of Cc1cnc(-c2ccnc(C(C)(C)O)n2)cc1-n1c(C)cc(OCc2ncc(F)cc2F)c(Cl)c1=O (single isomer, unassigned) ?
10.7

----------
- Assay Name: Phase 1 SAD/MAD pharmacokinetics of oral ATI-450 in healthy subjects (incl. 80/120 mg BID extension)
- Type: in vivo, human
- Assay Context: both sexes, human, plasma, oral, 10 mg, 10 mg BID, day 1; read-out: Cmax
Measure Name: Cmax (ng/mL)
Only the number, expressed in ng/mL, is required.

Quick one: Cmax of Cc1cnc(-c2ccnc(C(C)(C)O)n2)cc1-n1c(C)cc(OCc2ncc(F)cc2F)c(Cl)c1=O (single isomer, unassigned) ?
34.3

----------
- Assay Name: Phase 1 SAD/MAD pharmacokinetics of oral ATI-450 in healthy subjects (incl. 80/120 mg BID extension)
- Type: in vivo, human
- Assay Context: both sexes, human, plasma, oral, 10 mg, 10 mg BID, day 7; read-out: Tmax, median (min, max)
Measure Name: Tmax (h)
Only the number, expressed in h, is required.

Quick one: Tmax of Cc1cnc(-c2ccnc(C(C)(C)O)n2)cc1-n1c(C)cc(OCc2ncc(F)cc2F)c(Cl)c1=O (single isomer, unassigned) ?
2

----------
- Assay Name: Phase 1 SAD/MAD pharmacokinetics of oral ATI-450 in healthy subjects (incl. 80/120 mg BID extension)
- Format: in vivo, human
- Assay Context: both sexes, human, plasma, oral, 10 mg, 10 mg BID, day 1; read-out: AUC0-12
Measure Name: AUC(0-t)

Quick one: AUC(0-t) of Cc1cnc(-c2ccnc(C(C)(C)O)n2)cc1-n1c(C)cc(OCc2ncc(F)cc2F)c(Cl)c1=O (single isomer, unassigned) ?
200 ng·h/mL
